Reference source: patent US20250346644A1

The entries below are paired with their reported Kd.
Biological target: T1, hIL2-DM-his (human, UniProt P60568 21-153)
T1 construct: expressed in ExpiCHO-S cells, nickel-column purified; also called hIL-2 mutein containing two point mutations K64G and N90R (with a his-tag); not shown: his-tag
T1 sequence (P60568 21-153 K84G/N110R): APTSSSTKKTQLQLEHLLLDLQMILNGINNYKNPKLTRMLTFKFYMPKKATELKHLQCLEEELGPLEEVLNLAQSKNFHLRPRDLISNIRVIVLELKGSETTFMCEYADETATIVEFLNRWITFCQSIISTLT
Experiment: BLI ForteBio, Ab on Protein A sensor
reported.metric: Kd (nM)

[[record]]
binder = "K2G10 (antibody, V domains shown) VH: QVQLVQSGAEVKKPGATVKISCKVSGDTITAYYMHWVRQAPGQGLEWIGRIDPDDDSTKYAENFKGRVTITADTSTDTAYMELSSLRSEDTAVYYCTTITFYYTRELRWFAYWGQGTLVTVSS VL: DIVLTQSPATLSLSPGERATLSCQASQYISNYLSWYQQKPGQAPRLLIYSATSLASGIPARFSGSRSGTDFTLTISSLEPEDFAVYYCLQHYSTPYTFGQGTKLEIK"
observed_result = 0.973

[[record]]
binder = "K4G3 (antibody, V domains shown) VH: QVQLVQSGAEVKKPGATVKISCKVSGDTITAYYMHWVRQAPGQGLEWIGRIDPDDDSTKYAENFKGRVTITADTSTDTAYMELSSLRSEDTAVYYCTTVTFYYSRELRWFAYWGQGTLVTVSS VL: DIVLTQSPATLSLSPGERATLSCQASQYIGNYLSWYQQKPGQAPRLLIYSATSLASGIPARFSGSRSGTDFTLTISSLEPEDFAVYYCLQHYSTPYTFGQGTKLEIK"
observed_result = 3.08

[[record]]
binder = "K2G5 (antibody, V domains shown) VH: QVQLVQSGAEVKKPGATVKISCKVSGDTITAYYMHWVRQAPGQGLEWIGRIDPEDDSTKYAENFKGRVTITADTSTDTAYMELSSLRSEDTAVYYCTTVTFYYTRELRWFAYWGQGTLVTVSS VL: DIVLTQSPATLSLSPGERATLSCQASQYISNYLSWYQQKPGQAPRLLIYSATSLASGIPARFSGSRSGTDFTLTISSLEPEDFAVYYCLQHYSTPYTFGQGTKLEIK"
observed_result = 1.4

[[record]]
binder = "K4G1 (antibody, V domains shown) VH: QVQLVQSGAEVKKPGATVKISCKVSGDTITAYYMHWVRQAPGQGLEWIGRIDPEDDSTKYAENFKGRVTITADTSTDTAYMELSSLRSEDTAVYYCTTVTFYYSRELRWFAYWGQGTLVTVSS VL: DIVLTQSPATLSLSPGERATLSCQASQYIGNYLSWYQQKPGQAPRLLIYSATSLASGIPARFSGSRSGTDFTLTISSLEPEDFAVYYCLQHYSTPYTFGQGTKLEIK"
observed_result = 4.28

[[record]]
binder = "K2G2 (antibody, V domains shown) VH: QVQLVQSGAEVKKPGATVKISCKVSGDTITAYYMHWVRQAPGQGLEWIGRIDPEDDSTKYAENFKGRVTITADTSTDTAYMELSSLRSEDTAVYYCTTITFYYSRELRWFAYWGQGTLVTVSS VL: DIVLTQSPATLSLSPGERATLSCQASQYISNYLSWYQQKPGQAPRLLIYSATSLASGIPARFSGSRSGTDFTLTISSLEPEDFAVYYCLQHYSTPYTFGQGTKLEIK"
observed_result = 1.33

